Source of measurements: patent US3983105A

# Test system: Streptococcus faecalis
# protocol: MIC, test tube serial dilution, Streptococcus faecalis
# Format: cell-based
# settings: ATCC 9790; 24 hours, 37°C
Field 'label' (enum: YES / NO). Set to YES when MIC is strictly under 30 U/ml; else NO.

>>> label("COC(=O)N1CCN(C(=O)N[C@@H](C(=O)N[C@@H]2C(=O)N3[C@@H]2SC(C)(C)[C@@H]3C(=O)O)c2ccccc2)C1=O [Example 3]")
"NO"
>>> label("CC(=O)N1CCN(C(=O)N[C@@H](C(=O)N[C@@H]2C(=O)N3[C@@H]2SC(C)(C)[C@@H]3C(=O)O)c2ccccc2)C1=O [Example 1]")
"YES"
>>> label("CN(C(=O)N[C@@H](C(=O)N[C@@H]1C(=O)N2[C@@H]1SC(C)(C)[C@@H]2C(=O)O)c1ccccc1)C(=O)N1CCCS1(=O)=O [Example 29]")
"YES"
>>> label("CC(C)OC(=O)N1CCN(C(=O)N[C@@H](C(=O)N[C@@H]2C(=O)N3[C@@H]2SC(C)(C)[C@@H]3C(=O)O)c2ccccc2)C1=O [Example 7]")
"YES"
>>> label("Cc1ccc(S(=O)(=O)NC2=NCCN2C(=O)N[C@@H](C(=O)N[C@@H]2C(=O)N3[C@@H]2SC(C)(C)[C@@H]3C(=O)O)c2ccccc2)cc1 [Example 25]")
"YES"
>>> label("CNC(=O)N1CCN(C(=O)N[C@@H](C(=O)N[C@@H]2C(=O)N3[C@@H]2SC(C)(C)[C@@H]3C(=O)O)c2ccccc2)C1=O [Example 2]")
"NO"
>>> label("CC(C)(C)C(=O)N1CCN(C(=O)N[C@@H](C(=O)N[C@@H]2C(=O)N3[C@@H]2SC(C)(C)[C@@H]3C(=O)O)c2ccccc2)C1=O [Example 21]")
"NO"
>>> label("CCS(=O)(=O)N1CCN(C(=O)N[C@@H](C(=O)N[C@@H]2C(=O)N3[C@@H]2SC(C)(C)[C@@H]3C(=O)O)c2ccccc2)C1=O [Example 24]")
"YES"
>>> label("CN(C)C(=O)N1CCN(C(=O)N[C@@H](C(=O)N[C@@H]2C(=O)N3[C@@H]2SC(C)(C)[C@@H]3C(=O)O)c2ccccc2)C1=O [Example 6]")
"NO"
>>> label("CC1(C)S[C@@H]2[C@H](NC(=O)[C@H](NC(=O)N3CCN(C(=O)c4ccco4)C3=O)c3ccccc3)C(=O)N2[C@H]1C(=O)O [Example 13]")
"YES"

====

Measured MIC by item
# System: Staphylococcus aureus
# protocol: MIC, test tube serial dilution, Staphylococcus aureus
# Assay type: cell-based
# settings: strain 1756 (BRL 1 756); 24 hours, 37°C
parameter: MIC (U/ml)

>>> reading("CN(C(=O)N[C@@H](C(=O)N[C@@H]1C(=O)N2[C@@H]1SC(C)(C)[C@@H]2C(=O)O)c1ccccc1)C(=O)N1CCCS1(=O)=O [Example 29]")
256
>>> reading("CC1(C)S[C@@H]2[C@H](NC(=O)[C@H](NC(=O)N3CCN(C(=O)c4ccco4)C3=O)c3ccccc3)C(=O)N2[C@H]1C(=O)O [Example 13]")
128

====

# Tested on: Escherichia coli
# protocol: MIC, test tube serial dilution, Escherichia coli
# Format: cell-based
# settings: strain A 261; 24 hours, 37°C
This section presents compounds with their documented MIC values.
parameter: MIC

>>> reading("CC(=O)N1CCN(C(=O)N[C@@H](C(=O)N[C@@H]2C(=O)N3[C@@H]2SC(C)(C)[C@@H]3C(=O)O)c2ccccc2)C1=O [Example 1]")
"400 U/ml"
>>> reading("CCS(=O)(=O)N1CCN(C(=O)N[C@@H](C(=O)N[C@@H]2C(=O)N3[C@@H]2SC(C)(C)[C@@H]3C(=O)O)c2ccccc2)C1=O [Example 24]")
"512 U/ml"
>>> reading("CCC(=O)N1CCN(C(=O)N[C@@H](C(=O)N[C@@H]2C(=O)N3[C@@H]2SC(C)(C)[C@@H]3C(=O)O)c2ccccc2)C1=O [Example 26]")
"> 256 U/ml"
>>> reading("CC1(C)S[C@@H]2[C@H](NC(=O)[C@H](NC(=O)N3CCN(C=O)C3=O)c3ccccc3)C(=O)N2[C@H]1C(=O)O [Example 20]")
"> 256 U/ml"
>>> reading("CC1(C)S[C@@H]2[C@H](NC(=O)[C@H](NC(=O)N3CCN(C(=O)Nc4ccccc4)C3=O)c3ccccc3)C(=O)N2[C@H]1C(=O)O [Example 10]")
"> 256 U/ml"
>>> reading("CC1(C)S[C@@H]2[C@H](NC(=O)[C@H](NC(=O)N3CCN(C(=O)N4CCCCC4)C3=O)c3ccccc3)C(=O)N2[C@H]1C(=O)O [Example 9]")
"> 256 U/ml"
>>> reading("CCOC(=O)NS(=O)(=O)N1CCN(C(=O)N[C@@H](C(=O)N[C@@H]2C(=O)N3[C@@H]2SC(C)(C)[C@@H]3C(=O)O)c2ccccc2)C1=O [Example 22]")
"> 256 U/ml"
>>> reading("CNC(=O)N1CCN(C(=O)N[C@@H](C(=O)N[C@@H]2C(=O)N3[C@@H]2SC(C)(C)[C@@H]3C(=O)O)c2ccccc2)C1=O [Example 2]")
"100 U/ml"
>>> reading("CC1(C)S[C@@H]2[C@H](NC(=O)[C@H](NC(=O)N3CCN(C(=O)c4ccccc4)C3=O)c3ccccc3)C(=O)N2[C@H]1C(=O)O [Example 12]")
"64 U/ml"
>>> reading("CN(C(=O)N[C@@H](C(=O)N[C@@H]1C(=O)N2[C@@H]1SC(C)(C)[C@@H]2C(=O)O)c1ccccc1)C(=O)N1CCCS1(=O)=O [Example 29]")
"> 256 U/ml"
>>> reading("CN(C)C(=O)N1CCN(C(=O)N[C@@H](C(=O)N[C@@H]2C(=O)N3[C@@H]2SC(C)(C)[C@@H]3C(=O)O)c2ccccc2)C1=O [Example 6]")
"> 256 U/ml"
>>> reading("CC1(C)S[C@@H]2[C@H](NC(=O)[C@H](NC(=O)N3CCN(S(C)(=O)=O)C3=O)c3ccccc3)C(=O)N2[C@H]1C(=O)O [Example 4]")
"32 - 64 U/ml"
>>> reading("CC1(C)S[C@@H]2[C@H](NC(=O)[C@H](NC(=O)N3CCN(S(=O)(=O)c4ccccc4)C3=O)c3ccccc3)C(=O)N2[C@H]1C(=O)O [Example 27]")
"> 256 U/ml"
>>> reading("CC1(C)S[C@@H]2[C@H](NC(=O)[C@H](NC(=O)NC(=O)NS(C)(=O)=O)c3ccccc3)C(=O)N2[C@H]1C(=O)O [Example 31]")
"> 256 U/ml"
>>> reading("CC(C)OC(=O)N1CCN(C(=O)N[C@@H](C(=O)N[C@@H]2C(=O)N3[C@@H]2SC(C)(C)[C@@H]3C(=O)O)c2ccccc2)C1=O [Example 7]")
"> 256 U/ml"
>>> reading("CC1(C)S[C@@H]2[C@H](NC(=O)C(C(=O)O)c3ccccc3)C(=O)N2[C@H]1C(=O)O (stereo partly shown) [Carbenicillin, reference compound]")
"400 U/ml"

====

# Test system: Staphylococcus aureus
# protocol: MIC, test tube serial dilution, Staphylococcus aureus
# Format: cell-based
# settings: strain 1756 (BRL 1 756); 24 hours, 37°C
parameter: MIC (U/ml)

>>> reading("CC1(C)S[C@@H]2[C@H](NC(=O)[C@H](NC(=O)N3CCN(C(=O)OC4CCCCC4)C3=O)c3ccccc3)C(=O)N2[C@H]1C(=O)O")
64
>>> reading("CC(=O)N1CCN(C(=O)N[C@@H](C(=O)N[C@@H]2C(=O)N3[C@@H]2SC(C)(C)[C@@H]3C(=O)O)c2ccccc2)C1=O")
400
>>> reading("CC(C)(C)C(=O)N1CCN(C(=O)N[C@@H](C(=O)N[C@@H]2C(=O)N3[C@@H]2SC(C)(C)[C@@H]3C(=O)O)c2ccccc2)C1=O")
256
>>> reading("CNC(=O)N1CCN(C(=O)N[C@@H](C(=O)N[C@@H]2C(=O)N3[C@@H]2SC(C)(C)[C@@H]3C(=O)O)c2ccccc2)C1=O")
200

====

# Test system: Staphylococcus aureus
# protocol: MIC, test tube serial dilution, Staphylococcus aureus
# Format: cell-based
# settings: Table 3; strain 133
Property: MIC; scope: individual molecules
parameter: MIC

>>> reading("CC(=O)N1CCN(C(=O)NC(C(=O)N[C@@H]2C(=O)N3[C@@H]2SC(C)(C)[C@@H]3C(=O)O)c2ccc(Cl)cc2)C1=O (stereo partly drawn) [Penicillin No. 7 (Table 3)]")
"< 1 U/ml"
>>> reading("COC(=O)N1CCN(C(=O)NC(C(=O)N[C@@H]2C(=O)N3[C@@H]2SC(C)(C)[C@@H]3C(=O)O)c2cccs2)C1=O (stereo partly drawn) [Penicillin No. 20 (Table 3)]")
"< 1 U/ml"
>>> reading("CC1(C)S[C@@H]2[C@H](NC(=O)C(NC(=O)N3CCN(S(C)(=O)=O)C3=O)c3ccc(Cl)cc3)C(=O)N2[C@H]1C(=O)O (stereo partly drawn) [Penicillin No. 2 (Table 3)]")
"< 1 U/ml"
>>> reading("CC1(C)S[C@@H]2[C@H](NC(=O)[C@H](N)c3ccccc3)C(=O)N2[C@H]1C(=O)O [Ampicillin, α-aminobenzylpenicillin, reference compound]")
"< 1 U/ml"
>>> reading("CC1(C)S[C@@H]2[C@H](NC(=O)C(NC(=O)N3CCN(S(C)(=O)=O)C3=O)c3cccs3)C(=O)N2[C@H]1C(=O)O (stereo partly drawn) [Penicillin No. 3 (Table 3)]")
"< 1 U/ml"
>>> reading("CC1(C)S[C@@H]2[C@H](NC(=O)[C@H](NC(=O)N3CCN(S(C)(=O)=O)C3=O)c3ccccc3)C(=O)N2[C@H]1C(=O)O [Penicillin No. 1 (Table 3)]")
"< 0.8 U/ml"
